tested on: 786-0 renal; assay: NCI tumour cell line growth inhibition, 48 h

compound: O=C(NC(=O)c1ccccc1[N+](=O)[O-])Nc1ccc(Oc2ncc(Cl)cn2)c([N+](=O)[O-])c1
TGI: > 100 µM

compound: O=C(CCCN1CCC2(CC1)CC(=O)N(N1CCOCC1)C2=O)c1ccc(F)cc1
TGI: > 100 µM

compound: Cc1nc(N2N=C(c3ccc(Cl)cc3)CCC2=O)sc1[N+](=O)[O-]
TGI: > 100 µM

compound: O=C(CC(C(=O)c1cccs1)c1ccsc1)c1ccccc1 (stereo not given)
TGI: > 100 µM

compound: C[C@]12CC[C@@H]3c4cc(OC(F)F)c(OS(N)(=O)=O)cc4CC[C@H]3[C@@H]1CC[C@@H]2OS(N)(=O)=O
TGI: 16.5 µM

compound: CCCCNC(=O)C1C(=O)N(CCCC)C(=O)/C1=N\N (stereo not given)
TGI: > 100 µM

compound: COc1ccc(Sc2nc3cc(N)cc(N)c3nc2-c2ccccc2)cc1
TGI: > 100 µM

compound: COCCNc1ccc2c3c(cccc13)C(=O)N(CCN(C)C)C2=O
TGI: > 25 µM

compound: O=c1[nH]nc(Cc2ccccc2)n1CCCl
TGI: > 100 µM

compound: CC(=O)Oc1ccc2cc(Oc3ccc(Cl)c(Cl)c3)c(=O)oc2c1
TGI: 52.4 µM
